Target: hα7-wt nAChR (Homo sapiens)
Construct: expressed in transfected cells
Sequence (P36544 23-502): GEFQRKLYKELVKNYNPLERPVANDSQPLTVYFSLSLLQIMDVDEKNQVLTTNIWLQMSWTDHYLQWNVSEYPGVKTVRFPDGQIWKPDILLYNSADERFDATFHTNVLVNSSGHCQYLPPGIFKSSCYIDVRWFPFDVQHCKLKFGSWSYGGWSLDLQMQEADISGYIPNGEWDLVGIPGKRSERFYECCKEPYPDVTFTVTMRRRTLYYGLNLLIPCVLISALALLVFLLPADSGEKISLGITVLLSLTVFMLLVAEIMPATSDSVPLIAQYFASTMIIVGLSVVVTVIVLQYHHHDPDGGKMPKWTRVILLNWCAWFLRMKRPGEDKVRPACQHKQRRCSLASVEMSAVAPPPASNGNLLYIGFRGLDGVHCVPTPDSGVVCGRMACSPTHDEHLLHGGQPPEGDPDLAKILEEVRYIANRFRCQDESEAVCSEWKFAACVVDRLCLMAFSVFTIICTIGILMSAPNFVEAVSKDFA
Test: Ca2+ flux imaging (FDSS) (Protocol B), potentiation of the choline response
Assay type: cell-based
Conditions: Ca2+ assay as described in D.1; read-out: % Efficacy
Experimental: Ca^2+ Flux Imaging (FDSS) (Protocol B) […] PAM activity was detected in real time by applying the compounds to be tested to the loaded cells along with a α7 nicotinic receptor agonist during constant monitoring of cellular fluorescence in a FDSS. […] A control response to choline was calculated on each plate from the difference in peak in fluorescence in wells receiving either choline or assay buffer alone. […]
recorded-metric: Emax (%)
Quick reminder: number only, in %, skip the unit.

Past entries and their recorded results:
[[record]]
smiles_input = "CNC(=O)Cn1nc(Nc2cccc(Cl)c2F)cc1-c1cc(C)nc(C)c1"
readout_value = 519

[[record]]
smiles_input = "Cc1cc(-c2cc(Nc3cc(F)c(F)c(F)c3)nn2CC(=O)NC2CCC2)cc(C)n1"
readout_value = 793


Returns the measured Emax for the input compound. Input: Cc1cc(-c2cc(Nc3ccc4c(c3)OC(F)(F)O4)nn2CCC(=O)N(C)C)cc(C)n1
503

Returns the measured Emax for the input compound. Input: CCNc1cc(-c2cc(Nc3cc(OC)cc(C(F)(F)F)c3)nn2C[C@H](C)O)ccn1
700

Returns the measured Emax for the input compound. Input: Cc1cc(-c2cc(Nc3ccc(F)c(C(F)(F)F)c3)nn2C[C@H](C)O)ccn1
700

Returns the measured Emax for the input compound. Input: Cc1cc(-c2cc(Nc3cc(F)c(F)c(F)c3)nn2CC(=O)NCC2CC2)ccn1
778

Returns the measured Emax for the input compound. Input: Cc1cc(-c2cc(Nc3cccc(OC(F)(F)F)c3)nn2CC(=O)NC2CCC2)cc(C)n1
768

Returns the measured Emax for the input compound. Input: CC[C@H](O)Cn1nc(Nc2ccc(F)c(C(F)(F)F)c2)cc1-c1ccc(C)nc1
500

Returns the measured Emax for the input compound. Input: Cc1cc(-c2cc(Nc3cccc(OC(F)(F)F)c3)nn2CCC(=O)N(C)C)cc(C)n1
738

Returns the measured Emax for the input compound. Input: Cc1cc(-c2cc(Nc3ccc(F)c(F)c3)nn2CC(=O)NC2CCC2)cc(C)n1
507

Returns the measured Emax for the input compound. Input: CNC(=O)Cn1nc(Nc2cccc(OC(F)(F)F)c2)cc1-c1cc(C)nc(C)c1
726

Returns the measured Emax for the input compound. Input: CNC(=O)Cn1nc(Nc2cccc(C(F)(F)F)c2)cc1-c1cc(C)nc(C)c1
835

###

target: hα7-wt nAChR (Homo sapiens); construct: expressed in transfected cells; test: Ca2+ flux imaging (FDSS) (Protocol B), potentiation of the choline response; assay type: cell-based; settings: Ca2+ assay as described in D.1; read-out: % Efficacy
recorded-metric: Emax (%)
Quick reminder: number only, in %, skip the unit.

[[record]]
compound = "CC[C@H](O)Cn1nc(Nc2cccc(Cl)c2F)cc1-c1ccnc(C)c1 [compound 118]"
readout_value = 633

[[record]]
compound = "CNC(=O)Cn1nc(Nc2ccc(F)c(F)c2F)cc1-c1cc(C)nc(C)c1 [compound 120]"
readout_value = 969

[[record]]
compound = "CNC(=O)Cn1nc(Nc2ccc(F)c(F)c2F)cc1-c1ccnc(C)c1 [compound 107]"
readout_value = 907

[[record]]
compound = "Cc1cc(-c2cc(Nc3cc(F)c(F)c(F)c3)nn2CCC(=O)N(C)C)ccn1 [compound 142]"
readout_value = 816

[[record]]
compound = "CCNC(=O)Cn1nc(Nc2ccc(F)c(F)c2)cc1-c1cc(C)nc(C)c1 [compound 151]"
readout_value = 749


Returns the measured Emax for the input compound. Input: CCNC(=O)Cn1nc(Nc2cccc(Cl)c2F)cc1-c1cc(C)nc(C)c1 [compound 154]
901

Data provenance: patent US8779158B2
